System: methionyl-tRNA synthetase (Trypanosoma brucei brucei)
Assay: T. brucei MetRS inhibitors, primary screen, biochemical, luminescence (AID 624268);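 further: 0% = DMSO wells median and 100% = median of wells with control inhibitor compound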
Details: purified T. brucei MetRS, ATP depletion, Kinase-Glo luminescence; at 11.9 µM; stronger effect = higher value
In all, about 360,000 compounds went through this assay and about 1,500 (0.42%) were called active. The sample holds actives, similar compounds and a random draw of the others, so the mix is not that of the screen.
Attribute: inhibition
Please respond with the number in % and leave the unit unwritten.

Please review the entries below; each comes with its answer.
- O=C(NCc1cccnc1)Nc1cccc(NC(=O)NCc2cccnc2)c1F: -1.05
- O=C(NCc1cccc(CNC(=O)Nc2cccc(O)c2)c1)Nc1cccc(O)c1: 8.03
- C/C(=C\C(=O)c1ccccc1)Nc1cccc(O)c1: 0.01

Next molecule, inhibition to be filled in.
Which inhibition reading was recorded for the molecule CCCCCCCC[n+]1cccc(C(=O)N2c3c(nc(N)[nH]c3=O)NC(C)C2C)c1 (stereo not drawn) ?
14.2

----------
Test system: methionyl-tRNA synthetase (Trypanosoma brucei brucei)
Test: T. brucei MetRS inhibitors, primary screen, biochemical, luminescence (AID 624268)
Conditions: purified T. brucei MetRS, ATP depletion, Kinase-Glo luminescence; at 11.9 µM; stronger effect = higher value
The campaign covered roughly 360,000 compounds. About 1,500 (0.42%) were called active. The sample as a whole holds a higher share of actives than the screen did.
Attribute: inhibition

- CC(=O)Nc1ccc(NC(=S)NC(=O)c2ccc([N+](=O)[O-])c(C)c2)cc1: -0.17% (inactive)
- Cc1cc(O)c(NC(=O)c2ccc(C)c([N+](=O)[O-])c2)cc1C: -1.17% (inactive)
- Cc1ccc(S(=O)(=O)N2CCN(C(=O)c3ccc(-n4cncn4)c([N+](=O)[O-])c3)CC2)cc1: 1.45% (inactive)
- O=C(COc1ccccc1F)NNC(=O)c1ccc(N2CCCCC2)c([N+](=O)[O-])c1: -0.55% (inactive)

Next compound, inhibition to be filled in.
Which inhibition reading was recorded for the compound CC(C)NC(=O)c1ccc(Sc2ccccc2)c([N+](=O)[O-])c1 ?
-1.54% (inactive)

----------
Attribute: inhibition
System: methionyl-tRNA synthetase (Trypanosoma brucei brucei)
Test: T. brucei MetRS inhibitors, primary screen, biochemical, luminescence (AID 624268)
Settings: purified T. brucei MetRS, ATP depletion, Kinase-Glo luminescence; at 11.9 µM; stronger effect = higher value
The whole screen tested about 360,000 compounds, of which about 1,500 (0.42%) were called active. What follows is part of a selection rich in actives, with near analogues and random picks from the rest.
Please respond with the number in % and leave the unit unwritten.

* COc1ccc(NC2CCCN(C(=O)c3ccncc3)C2)cc1 (configuration not stated) | -0.58

Which inhibition reading was recorded for the compound Cc1cccc(-c2cnc(C(O)c3cc(C)cc(C)c3)[nH]2)c1 (configuration not stated) ?
-0.08

Which inhibition reading was recorded for the compound O=C(CC(O)(C(F)(F)F)C(F)(F)F)Nc1ccc(Cl)c(Cl)c1 ?
1.83

Which inhibition reading was recorded for the compound Cc1ccc(N(C(=O)C(F)(F)F)C(C(=O)NC2CCCCC2)c2ccncc2)cc1C (configuration not stated) ?
-0.39

Which inhibition reading was recorded for the compound CCCCn1c(-c2cccc(C)c2)nc2cc3[nH]c(=O)c(C(C)C)nc3cc21 ?
-0.06

Which inhibition reading was recorded for the compound NCCCCCC(=O)N/N=C/c1ccc2nccnc2c1 ?
-0.25

Which inhibition reading was recorded for the compound S=c1[nH]nc(CSCc2ccc(Cl)cc2Cl)n1-c1ccccc1 ?
6.2

Which inhibition reading was recorded for the compound Cc1ccc(C(=O)Nc2ccc(C)c(S(=O)(=O)N(C)C)c2)s1 ?
-0.69

Which inhibition reading was recorded for the compound CCOc1ccc(C(C(=O)NC2CCCC2)N(C(=O)c2snc(C(N)=O)c2N)C2CCCC2)cc1 (configuration not stated) ?
-0.03

Which inhibition reading was recorded for the compound CC1(C(=O)NS(=O)(=O)c2ccccc2)CCN1C(=O)C1CCCCC1 (configuration not stated) ?
-0.08

Which inhibition reading was recorded for the compound COc1ccc2[nH]c3nc(SCC(=O)NC4CC4)nnc3c2c1 ?
0.12

Which inhibition reading was recorded for the compound Cc1ccc(CNC(=O)CSc2nnc3c(n2)[nH]c2ccc(F)cc23)cc1 ?
15.6

Which inhibition reading was recorded for the compound Cc1cc(C)cc(OCC(=O)NNC(=O)CCN2C(=O)c3ccccc3C2=O)c1 ?
0.2

Which inhibition reading was recorded for the compound CCn1c(CSCc2c(Cl)cccc2Cl)n[nH]c1=S ?
0.37

Which inhibition reading was recorded for the compound Cc1ccc(NCc2n[nH]c(=S)n2-c2ccccc2)cc1Cl ?
-0.41

Which inhibition reading was recorded for the compound CCO[C@H]1OC(C(=O)Nc2ccccc2)=C[C@@H](C2CC2)[C@@H]1CCCO ?
-0.28

Which inhibition reading was recorded for the compound OCCNc1nc2ccccc2n1-c1ncnc2sc3c(c12)CCC3 ?
22.8

Which inhibition reading was recorded for the compound O=C(O)c1cccnc1Sc1ncnc2sc3c(c12)CCC3 ?
-0.25

Which inhibition reading was recorded for the compound CCOc1ccc(NC(=O)CC2C(=O)N(c3ccccc3)C(=O)N2CCOC)cc1 (configuration not stated) ?
0.31

Which inhibition reading was recorded for the compound OC(c1cc(Cl)cc(Cl)c1)c1ncc(-c2ccccc2C(F)(F)F)[nH]1 (configuration not stated) ?
58

Which inhibition reading was recorded for the compound CCCCCn1nnnc1-c1nc2cc3ccccc3cc2[nH]c1=O ?
34.6

Which inhibition reading was recorded for the compound O=C(CC(=O)Nc1ccc(Cl)c(Cl)c1)N/N=C/c1ccc(O)cc1 ?
10.6

----------
System: methionyl-tRNA synthetase (Trypanosoma brucei brucei)
Experiment: T. brucei MetRS inhibitors, primary screen, biochemical, luminescence (AID 624268);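 further: 0% = DMSO wells median and 100% = median of wells with control inhibitor compound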
Details: purified T. brucei MetRS, ATP depletion, Kinase-Glo luminescence; at 11.9 µM
The whole screen tested about 360,000 compounds, of which about 1,500 (0.42%) were called active.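 The calls were made as follows: active = inhibition above a per-plate cutoff of the control wells' mean inhibition plus 3 SD (cut at about 5.5% in these data); inactive = the rest.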 What follows is part of a selection rich in actives, with near analogues and random picks from the rest.
Tick one outcome: active, inactive

Kindly provide the recorded test outcome for the following compound: Cc1ccc(C(O)c2ncc(-c3ccccc3F)[nH]2)cc1F (stereo not given)
inactive

----------
Attribute: inhibition
Test system: methionyl-tRNA synthetase (Trypanosoma brucei brucei)
Test: T. brucei MetRS inhibitors, primary screen, biochemical, luminescence (AID 624268);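 further: 0% = DMSO wells median and 100% = median of wells with control inhibitor compound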
Details: purified T. brucei MetRS, ATP depletion, Kinase-Glo luminescence; at 11.9 µM; stronger effect = higher value
Out of some 360,000 compounds screened, about 1,500 (0.42%) were called active. What follows is part of a selection rich in actives, with near analogues and random picks from the rest.
Please respond with the number in % and leave the unit unwritten.

Please review the entries below; each comes with its answer.
* COc1ccc(CCNC(=O)COC(=O)C2CCCCC2)cc1 | 0.41
* O=C(c1ccc(NS(=O)(=O)c2ccc3[nH]c(=O)[nH]c3c2)cc1)N1CCCCC1 | -0.5
* O=C(NNC(=O)c1ccc(-n2cncn2)c([N+](=O)[O-])c1)c1ccccc1 | 17.1
* CCOn1c(=O)c(=O)n(O)c2ccccc21 | 0.13
* O=C(NCC(O)c1nc2ccccc2[nH]1)c1ccc(Br)cc1 (stereo not drawn) | 21

Which inhibition reading was recorded for the compound COc1ccc(S(=O)(=O)c2c[nH]c(=S)[nH]c2=O)cc1Cl ?
-0.79

Which inhibition reading was recorded for the compound CC(Oc1ccccc1F)C(=O)NN (stereo not drawn) ?
-0.07

Which inhibition reading was recorded for the compound CCN1CCN(c2ccc([N+](=O)[O-])cc2C(=O)c2ccc(Cl)cc2)CC1 ?
-0.26

Which inhibition reading was recorded for the compound NC(=O)CC[C@@H]1NC(=O)[C@@H]2CCCN2C(=O)c2cc([N+](=O)[O-])cc(F)c2NCCC[C@@H](C(N)=O)NC1=O ?
-0.23

Which inhibition reading was recorded for the compound O=C(OCc1nc2ccccc2[nH]1)C1CCCCC1 ?
14.4

Which inhibition reading was recorded for the compound COc1ccc(CCN2CC(C(=O)OCC(=O)NCc3ccccc3Cl)CC2=O)cc1OC (stereo not drawn) ?
0.43

Which inhibition reading was recorded for the compound Cc1ccc(CC2CC(=O)N(c3ccc4c(c3)OCCO4)C2=O)cc1 (stereo not drawn) ?
-0.24

Which inhibition reading was recorded for the compound O=C(NCCN1CCOCC1)Nc1cccc(Cl)c1 ?
0.46

Which inhibition reading was recorded for the compound Cc1cc(Nc2cccc(F)c2)n2ncnc2n1 ?
0.76

Which inhibition reading was recorded for the compound COc1ccc(CCNC(=O)CCc2ccccc2O)cc1OC ?
-0.3

Which inhibition reading was recorded for the compound CN(C)CCNC(=O)c1ccc(-c2cn3c(-c4ccc(Oc5ccccc5)cc4)cnc3cn2)cc1 ?
0.12

Which inhibition reading was recorded for the compound CCn1c(SCC(=O)N/N=C/C=C/c2ccccc2[N+](=O)[O-])nnc1-c1ccccc1 ?
0.33

----------
System: methionyl-tRNA synthetase (Trypanosoma brucei brucei)
Experiment: T. brucei MetRS inhibitors, primary screen, biochemical, luminescence (AID 624268);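 further: 0% = DMSO wells median and 100% = median of wells with control inhibitor compound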
Settings: purified T. brucei MetRS, ATP depletion, Kinase-Glo luminescence; at 11.9 µM
The campaign covered roughly 360,000 compounds. About 1,500 (0.42%) were called active.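 The calls were made as follows: active = inhibition above a per-plate cutoff of the control wells' mean inhibition plus 3 SD (cut at about 5.5% in these data); inactive = the rest.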 Shown is part of a subset that was picked to be rich in actives.
Tick one outcome: yes = active, no = inactive

- O=C1CC(C(=O)O)NC(=S)N1 (stereo unspecified): no
- CCCn1c(SCC(=O)Nc2ccc(C)c(S(=O)(=O)N3CCOCC3)c2)n[nH]c1=O: no
- O=C(NC(=S)Nc1ccc(S(=O)(=O)Nc2ncccn2)cc1)c1cccc(Br)c1: no
- COc1ccc(-n2c(SCC(=O)NCc3cccs3)nnc2-c2ccoc2C)cc1: no
- O=C(Nc1ccc(S(=O)(=O)Nc2ncccn2)cc1)c1cncc(Br)c1: yes

Kindly provide the recorded test outcome for the following compound: O=C(CSc1nnc(-c2c[nH]c3ccccc23)n1-c1ccc(F)cc1)NCc1ccco1
no

Kindly provide the recorded test outcome for the following compound: CCC(=O)N1CCC(C)(C(=O)Nc2cc(OC)c(OC)c(OC)c2)C1 (stereo unspecified)
no

Kindly provide the recorded test outcome for the following compound: CC(C)(C)n1cnnc1Sc1ccc([N+](=O)[O-])cn1
no
